What IC50 was measured for each of the following?
test system: E. coli BW25113 ΔtolC growth inhibition, OD615; assay: growth inhibitors of E. coli tolC mutant, dose response, strain BW25113 ΔtolC::kan (AID 617);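 also: growth read after 20 h at 37 °C with compound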

Recorded results for 10 molecules are shown here.
CCOc1ccc(NS(=O)(=O)c2ccc3[nH]cc(C(=O)NC(C)CC)c(=O)c3c2)cc1 (centres undefined) ... 11.1 µM
CCc1c(O)nc(SCC(=O)Nc2ccc(C)cc2)n(C2CCCCC2)c1=O ... 7.36 µM
COc1ccc(/C=N/n2c(SC)nnc2-c2ccccc2)cc1C ... 16.5 µM
CSc1nc2ccc(NS(=O)(=O)c3ccc(Cl)s3)cc2s1 ... 0.72 µM
Cc1cccc(OCCCCc2c(C)n[nH]c2C)c1C ... 1.56 µM
Cc1sc2nc(CN(Cc3cccs3)C(=O)NC3CCCCC3)[nH]c(=O)c2c1C ... 6.91 µM
Cc1cccc(NC(=O)c2cc3n(n2)C(C(F)(F)F)CC(c2ccc4c(c2)OCO4)N3)c1 (centres undefined) ... 6.87 µM
C=CCn1c(SCC(=O)Nc2nc3ccccc3s2)nnc1-c1ccccc1O ... 8.28 µM
CCOC(=O)N1CCc2c(sc(NC(=O)c3ccc(Cl)s3)c2C(N)=O)C1 ... 5.13 µM
O=C(O)CCC(=O)N1CCc2cc(S(=O)(=O)N3CCC(Cc4ccccc4)CC3)ccc21 ... 1.06 µM

For the 6 molecules below, give their IC50 values.
1. Cc1ccc(C(C(=O)NC2CCCC2)N(Cc2cccs2)C(=O)CNC(=O)c2cccs2)o1 (centres undefined)
2. C(=C\c1ccccc1)/CN1CCN(c2ncnc3c2oc2ccccc23)CC1
3. CC1CC(C)CN(c2ncnc3c2cnn3Cc2ccc(Cl)cc2)C1 (centres undefined)
4. c1csc(-c2noc(COc3ccc4c(c3)CCCC4)n2)c1
5. N=C(N)c1c(O)n(C2CCCCC2)c(=O)n(C2CCCCC2)c1=O
6. CC(C)C(c1nnnn1C1CCCC1)N1c2ccccc2CC1C (centres undefined)

[out]
1. 22.3 µM
2. 10.2 µM
3. 6.08 µM
4. 18.4 µM
5. 5.79 µM
6. 20.8 µM

For the 4 molecules below, give their IC50 values.
1. O=C(Nc1nc(SCc2ccc(F)cc2)ns1)c1ccco1
2. COc1cccc(-c2nnc(NC(=O)c3ccc(S(=O)(=O)N(CC(C)C)CC(C)C)cc3)o2)c1
3. CCc1ccccc1NS(=O)(=O)c1ccc(SC)cc1
4. Cc1ccc(CN2CCSc3ccc(C(=O)N4CCN(c5ncccn5)CC4)cc32)cc1

[out]
1: 4.2 µM; 2: 0.91 µM; 3: 41.6 µM; 4: 17 µM

For the 2 molecules below, give their IC50 values.
1. O=C(Nc1ccc(Br)c(Cl)c1)c1ccco1
2. CCOC(=O)N1CCN(S(=O)(=O)c2ccc(OCC)c3ccccc23)CC1

[out]
1: 8.74 µM; 2: 14.2 µM

====

test system: E. coli BW25113 ΔtolC growth inhibition, OD615; assay: growth inhibitors of E. coli tolC mutant, dose response, strain BW25113 ΔtolC::kan (AID 617);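 also: growth read after 20 h at 37 °C with compound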
pIC50: −log10 of the molar value.
readout.type: pIC50

Recorded results for 8 molecules are shown here.
c1ccc(CCN2CCN(c3ncnc4c3cnn4-c3ccccc3)CC2)cc1 ... 4.97
COc1ccccc1OCCSc1nnnn1-c1ccc(C)cc1 ... 4.72
Cc1ccc(NC(=O)CSC2=C(C#N)C(c3ccco3)C3=C(CC(C)(C)CC3=O)N2)cc1 (stereo not given) ... 5.05
O=C(CSc1nc2nc(-c3cccs3)cc(C(F)(F)F)c2c(=O)[nH]1)NCc1ccco1 ... 5.26
CCn1cc(C(=O)Nc2nncs2)c(=O)c2cc(F)c(N3CCN(C(=O)c4ccco4)CC3)cc21 ... 6.72
COc1ccc(Cl)cc1N1CCN(CCNC(=O)Nc2ccccc2C)CC1 ... 4.36
NC1C2CN(c3nc4c(cc3F)c(=O)c(C(=O)O)cn4-c3ccc(F)cc3F)CC12 (stereo not given) ... > 6.70
COc1ccccc1N1CCN(C(=O)COc2ccc(C)cc2Br)CC1 ... 4.59

For the 2 molecules below, give their pIC50 values.
1. CCN(CC)c1nc(N)c2c(N)nc3c(c2c1C#N)CC(c1ccccc1)O3 (stereo not given)
2. CC(C)N(Cc1nc(-c2ccccc2)no1)C(=O)c1ccc(Cl)cc1

[out]
5.18
4.71
